Values from the kinase profiling compilation of Christmann-Franck et al. (2016)

tested on: MAPK1 (mouse); assay: radiometric filter-binding kinase assay; conditions: compound 10.0 µM; ATP 100 µM; accession and sequence are those of the human protein
test readout: residual activity
Reply with the number, then its unit.

Here are 5 compounds together with their reported answers.
{"columns": ["smiles code", "residual activity"],
 "data": [
  ["Nc1ncnc2c1cnn2-c1ccccc1", "92%"],
  ["O=C1Cc2c([nH]c3ccc([N+](=O)[O-])cc23)-c2ccccc2N1", "64%"],
  ["COC(=O)[C@@]1(OC)C[C@@H]2O[C@]1(C)n1c3ccccc3c3c4c(c5c6ccccc6n2c5c31)C(=O)N(C)C4", "106%"],
  ["Cc1ccc(-c2nn(C(C)(C)C)c3ncnc(N)c23)cc1", "75%"],
  ["O=C(O[C@@H]1Cc2c(O)cc(O)cc2O[C@@H]1c1cc(O)c(O)c(O)c1)c1cc(O)c(O)c(O)c1", "53%"]
]}

Would you mind giving residual activity for every compound in the list below?
1. O=C1c2ccccc2-c2n[nH]c3cccc1c23
2. CC(C)(C)n1nc(-c2ccc(Cl)cc2)c2c(N)ncnc21

Reply |
1: 55%; 2: 61%

* * *

For each of the molecules below, state its residual activity.
molecular target: MAPK14 (human) (UniProt Q16539); experiment: radiometric filter-binding kinase assay; conditions: compound 10.0 µM; ATP 100 µM
Sequence (Q16539 whole entry, looked up): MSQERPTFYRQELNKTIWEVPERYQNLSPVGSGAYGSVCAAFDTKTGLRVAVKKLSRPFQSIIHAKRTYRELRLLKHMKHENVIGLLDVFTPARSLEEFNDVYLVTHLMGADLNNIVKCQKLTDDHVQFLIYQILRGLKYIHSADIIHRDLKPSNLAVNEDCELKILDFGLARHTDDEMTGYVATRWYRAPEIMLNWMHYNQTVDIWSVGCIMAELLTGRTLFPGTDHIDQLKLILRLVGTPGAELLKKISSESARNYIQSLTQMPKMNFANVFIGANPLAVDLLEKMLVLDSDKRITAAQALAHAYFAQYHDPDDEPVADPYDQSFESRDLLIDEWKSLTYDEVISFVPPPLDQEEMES
Numbers only, in %.

{"columns": ["smiles code", "value reported"],
 "data": [
  ["CC(C)[C@H](CO)Nc1nc(Nc2cccc(Cl)c2)c2ncn(C(C)C)c2n1", 101],
  ["O=C1c2ccccc2-c2n[nH]c3cccc1c23", 86],
  ["CC(C)(C)n1nc(-c2ccc(Cl)cc2)c2c(N)ncnc21", 21],
  ["O=C1Cc2c([nH]c3ccc([N+](=O)[O-])cc23)-c2ccccc2N1", 79],
  ["CN(C)S(=O)(=O)c1ccc2c(c1)/C(=C/c1cc3c([nH]1)CCCC3)C(=O)N2", 70]
]}

Would you mind giving residual activity for every molecule in the list below?
1. O=C(O[C@@H]1Cc2c(O)cc(O)cc2O[C@@H]1c1cc(O)c(O)c(O)c1)c1cc(O)c(O)c(O)c1
2. COC(=O)[C@@]1(OC)C[C@@H]2O[C@]1(C)n1c3ccccc3c3c4c(c5c6ccccc6n2c5c31)C(=O)N(C)C4
3. O=C1Nc2ccccc2/C1=C1\Nc2ccccc2\C1=N/O
4. Nc1ncnc2c1cnn2-c1ccccc1
5. Cc1ccc(-c2nn(C(C)(C)C)c3ncnc(N)c23)cc1

Reply |
1. 105
2. 102
3. 83
4. 100
5. 13

* * *

test system: RPS6KB1 (human), P23443 [T412E]; assay: radiometric filter-binding kinase assay; settings: compound 10.0 µM; ATP 100 µM
Sequence (P23443 whole entry T412E, looked up): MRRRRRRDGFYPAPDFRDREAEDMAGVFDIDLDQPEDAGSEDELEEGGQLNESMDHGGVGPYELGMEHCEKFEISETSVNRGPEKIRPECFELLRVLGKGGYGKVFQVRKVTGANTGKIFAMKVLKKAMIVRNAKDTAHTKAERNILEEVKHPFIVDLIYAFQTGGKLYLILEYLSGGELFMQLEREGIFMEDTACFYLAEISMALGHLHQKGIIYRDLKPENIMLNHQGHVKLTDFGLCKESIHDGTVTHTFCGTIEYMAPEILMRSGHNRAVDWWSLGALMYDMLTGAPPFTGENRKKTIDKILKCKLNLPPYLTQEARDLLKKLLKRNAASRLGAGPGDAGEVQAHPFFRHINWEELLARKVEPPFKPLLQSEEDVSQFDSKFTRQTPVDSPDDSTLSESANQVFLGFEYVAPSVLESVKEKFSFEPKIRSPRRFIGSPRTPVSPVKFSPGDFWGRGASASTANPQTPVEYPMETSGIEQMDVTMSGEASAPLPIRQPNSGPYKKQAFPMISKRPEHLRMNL
test readout: residual activity (%)
Numbers only, in %.

Here are 5 molecules together with their reported answers.
{"columns": ["smiles code", "measured on", "value reported"],
 "data": [
  ["CC(C)[C@H](CO)Nc1nc(Nc2cccc(Cl)c2)c2ncn(C(C)C)c2n1", "RPS6KB1 (human), P23443 [T412E]", 79],
  ["Cc1ccc(-c2nn(C(C)(C)C)c3ncnc(N)c23)cc1", "RPS6KB1 (human), P23443 [T412E]", 43],
  ["CC(C)(C)n1nc(-c2ccc(Cl)cc2)c2c(N)ncnc21", "RPS6KB1 (human), P23443 [T412E]", 70],
  ["O=C(O[C@@H]1Cc2c(O)cc(O)cc2O[C@@H]1c1cc(O)c(O)c(O)c1)c1cc(O)c(O)c(O)c1", "RPS6KB1 (human), P23443 [T412E]", 87],
  ["COC(=O)[C@@]1(OC)C[C@@H]2O[C@]1(C)n1c3ccccc3c3c4c(c5c6ccccc6n2c5c31)C(=O)N(C)C4", "RPS6KB1 (human), P23443 [T412E]", 90]
]}

Would you mind giving residual activity for every molecule in the list below?
1. Nc1ncnc2c1cnn2-c1ccccc1
2. O=C1Nc2ccccc2/C1=C1\Nc2ccccc2\C1=N/O
3. CN(C)S(=O)(=O)c1ccc2c(c1)/C(=C/c1cc3c([nH]1)CCCC3)C(=O)N2
4. CC[C@@H](CO)Nc1nc(NCc2ccccc2)c2ncn(C(C)C)c2n1
5. O=C1Cc2c([nH]c3ccc([N+](=O)[O-])cc23)-c2ccccc2N1

Reply |
1: 93; 2: 20; 3: 71; 4: 94; 5: 64

Would you mind giving residual activity for every molecule in the list below?
1. O=C1c2ccccc2-c2n[nH]c3cccc1c23
2. O=C1Cc2c([nH]c3ccc(Br)cc23)-c2ccccc2N1

Reply |
[22, 117]
